assay: Cmax in orally dosed rat; assay type: ADME, organism-based; parameters: route oral; conditions: in vivo, po
observed-property: Cmax (ng/mL)
Unit ng/mL implied. Number only.

[
  {
    "compound": "CCN(CC)CCOc1ccc(Nc2cc(N(C)C(=O)Nc3cc(O)ccc3C)ncn2)cc1",
    "readout-unit": "ng/mL",
    "Cmax": 3
  }
]

Look up and state reported Cmax for `CN(C(=O)Nc1c(Cl)cccc1Cl)c1cc(Nc2ccc(N3CCOCC3)cc2)ncn1`
9

Look up and state reported Cmax for `CCN(CC)CCOc1ccc(Nc2cc(N(C)C(=O)Nc3c(Cl)cccc3Cl)ncn2)cc1`
394

====

target: Tyrosine-protein kinase Lck (Homo sapiens)
# IC50 values compiled below
Unit nM implied. Number only.

Some molecules with known IC50 results, for comparison:
[
  {
    "compound": "CN(C(=O)Nc1c(Cl)cccc1Cl)c1cc(Nc2ccc(N3CCOCC3)cc2)ncn1",
    "observed-property": "IC50",
    "reported-value": 301
  },
  {
    "compound": "CCN(CC)CCOc1ccc(Nc2cc(N(CCCN(C)C)C(=O)Nc3c(Cl)cccc3Cl)ncn2)cc1",
    "observed-property": "IC50",
    "reported-value": 229
  }
]

Okay, next one:
Provide IC50, tested on Tyrosine-protein kinase Lck (Homo sapiens), for `CN(C)CCCNc1cc(N(C)C(=O)Nc2c(Cl)cccc2Cl)ncn1` .
5990

====

assay: Oral bioavailability in rat; assay type: ADME, organism-based; details: in vivo
observed-property: bioavailability (%)
Unit % implied. Number only.

Look up and state reported bioavailability for `CCN(CC)CCOc1ccc(Nc2cc(N(C)C(=O)Nc3c(Cl)cccc3Cl)ncn2)cc1`
66

Look up and state reported bioavailability for `CCN(CC)CCOc1ccc(Nc2cc(N(C)C(=O)Nc3cc(O)ccc3C)ncn2)cc1`
1

Look up and state reported bioavailability for `CN(C(=O)Nc1c(Cl)cccc1Cl)c1cc(Nc2ccc(N3CCOCC3)cc2)ncn1`
0

====

target: Tyrosine-protein kinase Lck (Homo sapiens, UniProt P06239)
Sequence (P06239 whole entry): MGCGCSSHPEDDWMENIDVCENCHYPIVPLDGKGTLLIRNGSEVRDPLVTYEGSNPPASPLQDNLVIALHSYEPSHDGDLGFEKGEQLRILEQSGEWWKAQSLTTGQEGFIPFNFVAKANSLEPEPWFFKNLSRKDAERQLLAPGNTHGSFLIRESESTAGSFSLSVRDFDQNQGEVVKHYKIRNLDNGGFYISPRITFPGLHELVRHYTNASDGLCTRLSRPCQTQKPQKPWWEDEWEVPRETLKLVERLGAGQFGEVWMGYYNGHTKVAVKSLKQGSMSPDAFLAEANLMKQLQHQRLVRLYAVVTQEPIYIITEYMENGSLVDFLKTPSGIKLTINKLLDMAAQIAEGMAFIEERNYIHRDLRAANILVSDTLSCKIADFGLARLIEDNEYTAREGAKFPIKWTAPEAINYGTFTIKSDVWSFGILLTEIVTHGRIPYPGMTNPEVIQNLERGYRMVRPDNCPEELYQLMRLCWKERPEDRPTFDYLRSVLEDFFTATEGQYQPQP
# IC50 values compiled below
Unit nM implied. Number only.

Some molecules with known IC50 results, for comparison:
[
  {
    "compound": "CN1CCN(c2ccc(Nc3cc(N(C)C(=O)Nc4c(Cl)cccc4Cl)ncn3)cc2)CC1",
    "readout-unit": "nM",
    "IC50": 6
  },
  {
    "compound": "CN(C(=O)Nc1ccccc1Cl)c1cc(Nc2ccc(F)cc2)ncn1",
    "readout-unit": "nM",
    "IC50": 1820
  }
]

Look up and state reported IC50 for `CCN(CC)CCOc1ccc(Nc2cc(N(C)C(=O)Nc3c(Cl)cccc3Cl)ncn2)cc1`
87

Look up and state reported IC50 for `CCN(CC)c1ccc(Nc2cc(N(CCCN(C)C)C(=O)Nc3c(C)cccc3Cl)ncn2)cc1`
971

====

# CLint scaled at 1 µM values compiled below
assay: Intrinsic clearance in rat hepatocytes after 1 hr at 1 uM; assay type: ADME, cell-based, Liver, Hepatocyte
Unit mL/min/kg implied. Number only.

Look up and state reported CLint scaled at 1 µM for `CCN(CC)CCOc1ccc(Nc2cc(N(C)C(=O)Nc3c(C)cccc3Cl)ncn2)cc1`
25

Look up and state reported CLint scaled at 1 µM for `CN(C(=O)Nc1c(Cl)cccc1Cl)c1cc(Nc2ccc(N3CCOCC3)cc2)ncn1`
48

Look up and state reported CLint scaled at 1 µM for `CCN(CC)CCOc1ccc(Nc2cc(N(C)C(=O)Nc3c(Cl)cccc3Cl)ncn2)cc1`
40

Look up and state reported CLint scaled at 1 µM for `CCN(CC)CCOc1ccc(Nc2cc(N(C)C(=O)Nc3cc(O)ccc3C)ncn2)cc1`
108

====

assay: Aqueous solubility of the compound; type: physicochemical; conditions: buffer
Rule: solubility of 3 µg/mL or more gives 1; anything lower gives 0.

[
  {
    "compound": "Cc1cccc(Cl)c1NC(=O)N(C)c1cc(Nc2ccc(N3CCN(C)CC3)cc2)ncn1",
    "category-label": 0
  },
  {
    "compound": "CCN(CC)CCOc1ccc(Nc2cc(N(C)C(=O)Nc3cc(C(=O)Nc4cc(C(C)(C)C)on4)ccc3C)ncn2)cc1",
    "category-label": 0
  },
  {
    "compound": "CCN(CC)CCOc1ccc(Nc2cc(N(C)C(=O)Nc3c(Cl)cccc3Cl)ncn2)cc1",
    "category-label": 1
  },
  {
    "compound": "CCN(CC)CCOc1ccc(Nc2cc(N(C)C(=O)Nc3c(C)cccc3Cl)ncn2)cc1",
    "category-label": 1
  }
]

Decide: solubility of `CCN(CC)CCOc1ccc(Nc2cc(N(C)C(=O)Nc3cc(O)ccc3C)ncn2)cc1` >= 3 µg/mL?
1
